- Test system: HT29 cells
- protocol: HT29 cell necroptosis assay (TNF-α/Smac mimetic/z-VAD induced necrosis, viability)
- Format: cell-based, human
- condition label: Homo sapiens, HT-29, HT29 cells, TNF-α/Smacmimetic/z-VAD induced necrosis; values in nM
quantity kind: log10 of IC50 (log10 of the value in nM)
Hey, these are logged values: log10 of IC50, nM being the unit before logging.

Illustrative cases are given below, each with its answer.
Cc1ncc(-c2ccc3nc(NC(=O)c4ccccc4)sc3c2)cc1NC(=O)OC1CCCCC1 [Compound A104]	1.78
CC(=O)Nc1nc2ccc(-c3cnc(Cl)c(NC(=O)Cc4ccccc4Cl)c3)cc2s1 [Compound A24]	2.72
CC(=O)Nc1nc2ccc(-c3cnc(C)c(NC(=O)OC4CCCCC4)c3)cc2s1 [Compound A36]	1.48
CCC(=O)Nc1nc2ccc(-c3cnc(C)c(NC(=O)OC4CCCCC4)c3)cc2s1 [Compound A60]	1.72
CC(=O)Nc1nc2ccc(-c3cnc(C)c(NC(=O)OC(C)C)c3)cc2s1 [Compound A73]	2.46
Cc1ncc(-c2ccc3nc(N)sc3c2)cc1NC(=O)OC1CCCCC1 [Compound A70]	1.97

Need log10 of IC50 for each of these compounds.
1. CC(=O)Nc1nc2ccc(-c3cnc(C)c(NC(=O)OC(C)C4CC4)c3)cc2s1 (centres unmarked) [Compound A88]
2. CC(=O)Nc1nc2ccc(-c3cnc(Cl)c(NC(=O)OC4CCCCC4)c3)cc2s1 [Compound A83]

[1.60, 1.65]

* * *

- System: HT29 cells
- protocol: HT29 cell necroptosis assay (TNF-α/Smac mimetic/z-VAD induced necrosis, viability)
- Format: cell-based, human
- condition label: Homo sapiens, HT-29, HT29 cells, TNF-α/Smacmimetic/z-VAD induced necrosis; values in nM
Kindly state IC50 for each of the entries shown.
One number for each entry, in nM.

Take a look at these entries with their results.
CC(=O)Nc1nc2ccc(-c3cc(NC(=O)OC4CCCCC4)c(C)cn3)cc2s1	73
CC(=O)Nc1cn2cc(-c3cnc(C)c(NC(=O)OC4CCCCC4)c3)ccc2n1	97
Cc1ncc(-c2ccc3nc(NC(=O)C4CC4)cn3c2)cc1NC(=O)OC1CCCCC1	9
CCc1ncc(-c2ccc3nc(NC(C)=O)sc3c2)cc1NC(=O)OC1CCCCC1	75
CNC(=O)Nc1nc2ccc(-c3cnc(C)c(NC(=O)OC4CCCCC4)c3)cc2s1	10

Would you mind giving IC50 for every molecule in the list below?
1. Cc1ncc(-c2ccc3nc(NC(=O)C4CC4)sc3c2)cc1NC(=O)OC1CCCCC1
2. CC(=O)Nc1nc2ccc(-c3cnc(C)c(NC(=O)OC(C)(C)C)c3)cc2s1
3. CC(=O)Nc1nc2ccc(-c3cnc(C)c(NC(=O)OC4CCOCC4)c3)cc2s1
4. CC(=O)Nc1nc2ccc(-c3cnc(C)c(NC(=O)CC(C)(C)C)c3)cc2s1
5. CC(=O)Nc1nc2ccc(-c3cnc(C)c(NC(=O)OC4CCC(=O)CC4)c3)cc2s1
6. CC(=O)Nc1nc2ccc(-c3cnc(C)c(NC(=O)CC4CCCC4)c3)cc2s1
7. CC(=O)Nc1nc2ccc(-c3cnc(C)c(NC(=O)OC4CCC4)c3)cc2s1
8. COc1ncc(-c2ccc3nc(NC(C)=O)sc3c2)cc1NC(=O)OC1CCCCC1

1: 1.2; 2: 500; 3: 253; 4: 430; 5: 867; 6: 431; 7: 121; 8: 107

List IC50 for every entry below, keeping the order given.
1. CC(=O)Nc1ccc2cc(-c3cnc(C)c(NC(=O)OC4CCCCC4)c3)ccc2n1
2. Cc1ncc(-c2ccc3nc(NC(=O)C4CC4)cn3n2)cc1NC(=O)OC1CCCCC1
3. CC(=O)Nc1nc2ccc(-c3cnc(C#N)c(NC(=O)OC4CCCCC4)c3)cc2s1

1: 441; 2: 31; 3: 534

Entry CCOC(=O)Nc1nc2ccc(-c3cnc(C)c(NC(=O)OC4CCCCC4)c3)cc2s1 : reported IC50 = ?
63

The origin of these recorded values is patent US10815226B2.
